Measured growth, listed per entry for reference.
Test system: SF-539 CNS
Test: NCI-60 one-dose screen, 48 h (100 = growth as untreated, 0 = no growth, -100 = all killed)
Condition description: 10 µM unless noted
This is part of a sample that, as a whole, favours compounds with a hit. Of some 83,000 tested, about 20% had one in any assay. Calls of active or inactive are those of the source. The calls were made as follows: active = growth percent below 10; inactive = the rest.

- Molecule: "COc1ccc2c(c1)CCCC21C(=O)Nc2c(Cl)cccc21 (stereo unspecified)"
  Assay system: "SF-539 CNS"
  growth: "73.3% (inactive)"
- Molecule: "FC(F)(F)c1ccc(/C=N/Nc2nnc3n2N=C(c2ccc(Cl)cc2)CS3)cc1"
  Assay system: "SF-539 CNS"
  growth: "54.8% (inactive)"
- Molecule: "Cc1ccc(NC(=O)Cn2nncc2CN2C(=O)CSC2=O)cc1C"
  Assay system: "SF-539 CNS"
  growth: "101% (inactive)"
- Molecule: "CCCC(CCC)NCC(O)c1cc(-c2ccc(C(F)(F)F)cc2)nc(C(F)(F)F)c1 (stereo unspecified)"
  Assay system: "SF-539 CNS"
  growth: "-72.2% (active)"
- Molecule: "CN(CCO)c1ccc(N2Cc3ccccc3OC3=C2C(=O)c2c(O)ccc(O)c2C3=O)cn1"
  Assay system: "SF-539 CNS"
  growth: "-68.9% (active)"
- Molecule: "CCN(CC)C(Cl)=Nc1ccc(Cl)cc1"
  Assay system: "SF-539 CNS"
  growth: "106% (inactive)"
- Molecule: "COc1ccc2nc(NC(=O)/C(=C/c3cc(OC)c(OC)c(OC)c3)c3ccc(OC)c(OC)c3)sc2c1"
  Assay system: "SF-539 CNS"
  growth: "102% (inactive)"
- Molecule: "COc1cc(C2CC(c3ccc(Nc4ccnc5cc(Cl)ccc45)cc3)=NN2c2ccccc2)cc(OC)c1OC (stereo unspecified)"
  Assay system: "SF-539 CNS"
  growth: "77% (inactive)"
- Molecule: "O=c1[nH]cnc2nc[nH]c12"
  Assay system: "SF-539 CNS"
  growth: "97.3% (inactive)"
- Molecule: "CCn1c(CN2CCN(Cc3ccccc3)CC2)nc2cc(NC(=O)c3cccs3)ccc21"
  Assay system: "SF-539 CNS"
  growth: "-69.8% (active)"
- Molecule: "Oc1c(C(c2ccc(F)cc2)N2CCCCC2)ccc2cncnc12 (stereo unspecified)"
  Assay system: "SF-539 CNS"
  growth: "13.9% (inactive)"
- Molecule: "COc1ccccc1/C=N\\NC(=S)Nc1ccc(F)cc1"
  Assay system: "SF-539 CNS"
  growth: "73.3% (inactive)"
- Molecule: "N#Cc1nc(-c2cccc(Br)c2)cc(-c2ccc(Nc3nc(N4CCCCC4)nc(N4CCCCC4)n3)cc2)c1N"
  Assay system: "SF-539 CNS"
  growth: "-75.9% (active)"
- Molecule: "CCCCNCCC(O)c1cc2ccc(C(F)(F)F)cc2c2cc(C(F)(F)F)ccc12 (stereo unspecified)"
  Assay system: "SF-539 CNS"
  growth: "-81.8% (active)"
- Molecule: "O=C(Nc1ccccc1Cl)Oc1ccc2ccccc2c1"
  Assay system: "SF-539 CNS"
  growth: "92.5% (inactive)"
- Molecule: "O=C(NC1CC1)c1ccc(-c2nc3ccc4[nH]ncc4c3c3c2CCCC3)cc1"
  Assay system: "SF-539 CNS"
  growth: "31.3% (inactive)"
- Molecule: "Cc1cc(C)c2c(n1)sc1c(Nc3ccc(O)cc3)ncnc12"
  Assay system: "SF-539 CNS"
  growth: "3.84% (active)"
- Molecule: "C/C=C(\\C)C(C(=O)NC1CCCCC1)N(C(=O)C1CCc2cc(F)ccc2O1)c1ccc([N+](=O)[O-])cc1 (stereo unspecified)"
  Assay system: "SF-539 CNS"
  growth: "92.8% (inactive)"
- Molecule: "COc1ccc(/C=C2\\Cc3c(Br)cccc3C2=O)c(OC)c1"
  Assay system: "SF-539 CNS"
  growth: "73.4% (inactive)"
- Molecule: "OC(c1cc2cc(Cl)ccc2c2cc(C(F)(F)F)ccc12)C1CCCCN1 (stereo unspecified)"
  Assay system: "SF-539 CNS"
  growth: "-80.5% (active)"
- Molecule: "COC(=O)c1ccc(NC(N)=NCCC(C)(C)c2ccc(C(F)(F)F)cc2)nc1"
  Assay system: "SF-539 CNS"
  growth: "79.3% (inactive)"
- Molecule: "CCOC(=O)NNc1cccc(Cl)c1"
  Assay system: "SF-539 CNS"
  growth: "99.8% (inactive)"
- Molecule: "CNC(=O)c1ccccc1Sc1ccc2c(/C=C/c3ccccn3)n[nH]c2c1"
  Assay system: "SF-539 CNS"
  growth: "3.31% (active)"
- Molecule: "COc1cc(-c2nc(-c3nc4cc(C(=O)c5ccccc5)ccc4[nH]3)cc3c2[nH]c2ccccc23)cc(OC)c1OC"
  Assay system: "SF-539 CNS"
  growth: "80.6% (inactive)"
- Molecule: "CC(=O)OC1Oc2cc(C)c(C)cc2-c2oc(=O)c(-c3cc4ccccc4oc3=O)cc21 (stereo unspecified)"
  Assay system: "SF-539 CNS"
  growth: "88.4% (inactive)"
- Molecule: "Nc1c(C(=O)Nc2cccc(Cl)c2)sc2ncc(Br)cc12"
  Assay system: "SF-539 CNS"
  growth: "61.5% (inactive)"
- Molecule: "Cc1cc(C)c(C#N)c(SCC(=O)c2sc3c(C#N)c(C)cc(C)[n+]3c2[O-])n1"
  Assay system: "SF-539 CNS"
  growth: "-11.3% (active)"
- Molecule: "COCCOCCOCc1n(Cc2ccc3ccccc3n2)c2ccccc2[n+]1Cc1ccc2ccccc2c1"
  Assay system: "SF-539 CNS"
  growth: "15.8% (inactive)"
- Molecule: "Cc1ccc(NC(=O)c2nc(S(C)(=O)=O)oc2-c2ccc(F)cc2)cc1Nc1ccc2ncn(C)c(=O)c2c1"
  Assay system: "SF-539 CNS"
  growth: "95.3% (inactive)"
- Molecule: "COc1c(-c2cc(-c3ccc(C)o3)[nH]c(=O)n2)c(O)cc2occc12"
  Assay system: "SF-539 CNS"
  growth: "69.9% (inactive)"
- Molecule: "COc1ccc(C(=O)C(C#N)c2cc(OC)c(OC)c(OC)c2)cc1 (stereo unspecified)"
  Assay system: "SF-539 CNS"
  growth: "93.8% (inactive)"
- Molecule: "O=Cc1ccc2nc(C(Cl)(Cl)Cl)ccc2c1"
  Assay system: "SF-539 CNS"
  growth: "98.8% (inactive)"
- Molecule: "Cc1c(O)c(=O)n(-c2ccccc2)n1C"
  Assay system: "SF-539 CNS"
  growth: "97.6% (inactive)"
- Molecule: "CCc1oc2ccccc2c1C(=O)c1cc(I)c(O)c(I)c1"
  Assay system: "SF-539 CNS"
  growth: "44% (inactive)"
- Molecule: "COc1cc(OC)cc(-c2n/c(=C\\c3c(O)[nH]c4ccc(Cl)cc34)cc3c2=Nc2ccccc2-3)c1"
  Assay system: "SF-539 CNS"
  growth: "104% (inactive)"
- Molecule: "CCOC(=O)Nc1ccc2nc(-c3cscn3)[nH]c2c1"
  Assay system: "SF-539 CNS"
  growth: "62.9% (inactive)"
- Molecule: "O=C1OC(c2ccc(-c3ccccc3)cc2)=C/C1=C/c1c(Cl)cccc1Cl"
  Assay system: "SF-539 CNS"
  growth: "102% (inactive)"
- Molecule: "O=C(Nc1ccc(Oc2ccc(Nc3nc4ccccc4s3)cc2)cc1)Nc1ccc(Cl)c(C(F)(F)F)c1"
  Assay system: "SF-539 CNS"
  growth: "9.29% (active)"
- Molecule: "CCN(CC)CCCNc1cccc2c(C)cc(OC)nc12"
  Assay system: "SF-539 CNS"
  growth: "88.8% (inactive)"
- Molecule: "CCCCCCCCCCCCCC(=S)NCCCC[C@H](NC(=O)OCc1ccccc1)C(=O)Nc1ccccc1"
  Assay system: "SF-539 CNS"
  growth: "75.3% (inactive)"
- Molecule: "COc1ccc(-c2nnc(SCC(=O)Nc3ccc(C(=O)/C=C/c4ccc(Cl)cc4)cc3)n2-c2ccccc2)cc1"
  Assay system: "SF-539 CNS"
  growth: "101% (inactive)"
